# key: entry, value: combination Emax
- Test system: Mo-T (Other Blood Carcinomas)
- EXPERIMENT NOTES: combination Emax (second highest fraction inhibited in the dose matrix, 72 h); higher = more inhibition; extreme values may be limits of the assay
PROPERTY NAME: combination Emax

INSERT INTO results (compound, assay_system, observed) VALUES
  ('Cc1c2c(nn1C)CSCc1cc(n(C)n1)CSc1cc(c3ccccc3c1)OCCCc1c(C(=O)O)n(C)c3c-2c(Cl)ccc13 [AZD5991] + Cn1cnc2c(F)c(Nc3ccc(Br)cc3Cl)c(C(=O)NOCCO)cc21 [Selumetinib] (first compound max 1 µM, 7x7, partner max 3 µM)', 'Mo-T (Other Blood Carcinomas)', 0.296),
  ('CC(=O)c1c(C)c2cnc(Nc3ccc(N4CCNCC4)cn3)nc2n(C2CCCC2)c1=O [Palbociclib] + CC1(C)CCC(CN2CCN(c3ccc(C(=O)NS(=O)(=O)c4ccc(NCC5CCOCC5)c([N+](=O)[O-])c4)c(Oc4cnc5[nH]ccc5c4)c3)CC2)=C(c2ccc(Cl)cc2)C1 [Venetoclax] (first compound max 10 µM, 7x7, partner max 1 µM)', 'Mo-T (Other Blood Carcinomas)', 0.297),
  ('Cc1nc(Nc2ncc(C(=O)Nc3c(C)cccc3Cl)s2)cc(N2CCN(CCO)CC2)n1 [Dasatinib] + CC(=O)Nc1cccc(-n2c(=O)n(C3CC3)c(=O)c3c(Nc4ccc(I)cc4F)n(C)c(=O)c(C)c32)c1 [Trametinib] (first compound max 2 µM, 7x7, partner max 1 µM)', 'Mo-T (Other Blood Carcinomas)', 0.137);

---

- Tested on: MOLT-4 (T-Lymphoblastic Leukemia);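 further: after 72 h of two-drug dosing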
- EXPERIMENT NOTES: Bliss excess, mean over the matrix (fraction); higher = more synergy
PROPERTY NAME: Bliss excess

INSERT INTO assay_data (compound, property_name, observed) VALUES
  ('Cc1cc2ncnn2cc1Nc1ncc2c(n1)n(C1CCOCC1)c(=O)n2C [AZD7648] + CN(C)CCCOc1ccc(-c2ccc3ncc4c(c3c2)n(C2CCOCC2)c(=O)n4C)cn1 [AZD0156] (first compound max 10 µM, 7x7, partner max 1 µM)', 'Bliss excess', 0.0068),
  ('CS(=O)(=O)CCNCc1ccc(-c2ccc3ncnc(Nc4ccc(OCc5cccc(F)c5)c(Cl)c4)c3c2)o1 [Lapatinib] + C[C@@H](Oc1cc(-c2cnn(C3CCNCC3)c2)cnc1N)c1c(Cl)ccc(F)c1Cl [Crizotinib] (first compound max 10 µM, 7x7, partner max 10 µM)', 'Bliss excess', -0.0084),
  ('Cn1cnc2c(F)c(Nc3ccc(Br)cc3Cl)c(C(=O)NOCCO)cc21 [Selumetinib] + CCN(CCO)CCCOc1ccc2c(Nc3cc(CC(=O)Nc4cccc(F)c4)[nH]n3)ncnc2c1 [AZD2811] (first compound max 10 µM, 7x7, partner max 1 µM)', 'Bliss excess', 0.0174);

---

- System: DU-145 (Prostate Carcinoma)
- EXPERIMENT NOTES: combination Emax (second highest fraction inhibited in the dose matrix, 72 h); higher = more inhibition; extreme values may be limits of the assay
# key: entry, value: combination Emax
PROPERTY NAME: combination Emax

INSERT INTO measurements (compound, observed) VALUES
  ('Cc1c2c(nn1C)CSCc1cc(n(C)n1)CSc1cc(c3ccccc3c1)OCCCc1c(C(=O)O)n(C)c3c-2c(Cl)ccc13 [AZD5991] + C1CN(CCC1(C(=O)N[C@@H](CCO)C2=CC=C(C=C2)Cl)N)C3=NC=NC4=C3C=CN4 [Capivasertib] (first compound max 1 µM, 7x7, partner max 3 µM)', 0.187),
  ('C=CCn1c(=O)c2cnc(Nc3ccc(N4CCN(C)CC4)cc3)nc2n1-c1cccc(C(C)(C)O)n1 [AZD1775] + Nc1ccn([C@@H]2O[C@H](CO)[C@@H](O)C2(F)F)c(=O)n1 [Gemcitabine] (first compound max 1 µM, partner max 0.3 µM)', 0.542),
  ('COc1cc2ncnc(Nc3ccc(F)c(Cl)c3)c2cc1OCCCN1CCOCC1 [Gefitinib] + CC(C)n1c(=O)n(C)c2cnc3cc(F)c(-c4ccc(OCCCN5CCCCC5)nc4)cc3c21 [AZD1390] (first compound max 10 µM, 7x7, partner max 0.3 µM)', 0.167),
  ('C[C@@H](c1ccc2nccn2c1)n1nnc2ncc(-c3cnn(C)c3)nc21 [Savolitinib] + Cc1c2c(nn1C)CSCc1cc(n(C)n1)CSc1cc(c3ccccc3c1)OCCCc1c(C(=O)O)n(C)c3c-2c(Cl)ccc13 [AZD5991] (first compound max 1 µM, 7x7, partner max 1 µM)', 0.132);
